# procedure details: BET inhibitor-based combinations targeting novel dependencies in MECOM-rearranged (r) AML: MV-4-11 cell line (AID 2202233); note: nearly all actives have a fitted effect of over 45% in size; note: potency is the fitted concentration of half-maximal effect
# test settings: MV-4-11 AML viability, CellTiter-Glo luminescence, 48 h; series mostly up to 46 µM
Results filed as inconclusive are left out. Activity calls are given as the source filed them. Calls come from the whole dose curve; as a rule, active = well fitted inhibition curve with a large enough effect; inconclusive = small, poorly fitted or top-dose-only effect; inactive = no such curve, though single readings can be large or run the other way.
readout type: Potency

Examples from the recorded data:
CC[C@@H](Oc1cccc(CN(CCCOc2ccc(OC)cc2)c2nc3ccccc3o2)c1)C(=O)O; inactive
O=C1NC(=O)/C(=C\c2ccc(-c3ccc(F)cc3)o2)S1; inactive
CCOc1ccc(-n2c([C@@H](C)N(Cc3cccnc3)C(=O)Cc3ccc(F)c(C(F)(F)F)c3)nc3ncccc3c2=O)cc1; 18.6 µM (active)
NC(=O)c1ccc2nc(-c3ccc(C4(N)CCC4)cc3)c(-c3ccccc3)n2n1; 4.17 µM (active)
CC(=O)OCC(=O)[C@@]12OC(C)(C)O[C@@H]1C[C@H]1[C@@H]3C[C@H](F)C4=CC(=O)C=C[C@]4(C)[C@@]3(F)[C@@H](O)C[C@@]12C; inactive
Cc1ccc(Sc2ccccc2N2CCNCC2)c(C)c1; 20.9 µM (active)
O=c1sn(-c2cccc3ccccc23)c(=O)n1Cc1ccccc1; 11.8 µM (active)
CCN(C(=O)c1ccccc1OC)c1cc2c(cc1N1CCNC[C@H]1C)n(C)c(=O)n2C; inactive
O=C1NC(=O)/C(=C/c2ccc3nccc(-c4ccncc4)c3c2)S1; 0.833 µM (active)
COc1cc(C(N)=O)ccc1NC(=O)[C@@H]1N[C@@H](CC(C)(C)C)[C@@]2(C(=O)Nc3cc(Cl)ccc32)[C@H]1c1cccc(Cl)c1F; 0.0934 µM (active)

Summary for this molecule, Nc1nc2cc(-c3ccc4ncc(C(=O)N5CCOCC5)n4c3)ccc2o1 : Potency is 16.6 µM (active)

Summary for this molecule, COc1ccc(C(=O)CC2(O)C(=O)Nc3c(Cl)ccc(Cl)c32)cc1 (configuration not stated) : Potency is inactive

Summary for this molecule, CCNCCc1ccc(CN(CC)c2cc(OC)ccc2[C@@H]2CCc3cc(O)ccc3C2)cc1 : Potency is 5.9 µM (active)
